# Assay Protocol: inhibitors of CD8+ T cell–vesicle binding, dose response, mouse 2C CD8+ T cells, flow cytometry (AID 485284);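 further: drosophila derived vesicles carrying Ld MHC with QL9 peptide plus B7-1 and ICAM-1; vesicle binding seen as anti-B7-1 PE fluorescence on CD8 gated cells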
# Experimental Conditions: 2C mouse CD8+ T cell-exosome binding; at 45 µM (top of the series)
Measured potencies and affinities stand elsewhere.
Would you mind telling me the reported binding remaining, % of control of each entry?
One number for each entry, in %.

Examples with answers:
Compound: COc1ccc(NC(=O)[C@H](C)NC(=O)C2CCN(S(=O)(=O)c3ccc(C)cc3)CC2)cc1
binding remaining, % of control / %: 108

Compound: Cc1c(Cl)cccc1NC(=O)c1cc(C2CC2)on1
binding remaining, % of control / %: 86

Compound: Cc1cccc(Nc2nc(-c3ccccn3)cs2)n1
binding remaining, % of control / %: 69.7

Compound: O=C(NC1CCCCCC1)C1CCN(S(=O)(=O)c2ccccc2)CC1
binding remaining, % of control / %: 137

Compound: CCOc1ccc(-c2csc(NNC3=NCCCCC3)n2)cc1
binding remaining, % of control / %: 156

# evaluate next
Task: For the compound shown here, CC(=O)Nc1ccc(S(=O)(=O)NC2CCSc3ccccc32)cc1 (stereo unspecified) , give the reported binding remaining, % of control.
Result: 273

---

# Assay Protocol: inhibitors of CD8+ T cell–vesicle binding, dose response, mouse 2C CD8+ T cells, flow cytometry (AID 485284);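 further: drosophila derived vesicles carrying Ld MHC with QL9 peptide plus B7-1 and ICAM-1; vesicle binding seen as anti-B7-1 PE fluorescence on CD8 gated cells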
# Experimental Conditions: 2C mouse CD8+ T cell-exosome binding; at 45 µM (top of the series)
Results with a measured potency or affinity are listed apart.
Under this convention, true (1) denotes binding remaining, % of control strictly below 60% and false (0) denotes binding remaining, % of control at or above 60%.

Compound: Cc1ccccc1CS(=O)(=O)CCC(=O)N1CCN(c2ccc(N3CCOCC3)nn2)CC1
Class: true (1)
--
Compound: CCCNC(=O)c1nc2ncc(Br)cn2n1
Class: false (0)
--
Compound: O=C(NNS(=O)(=O)c1ccc2ccccc2c1)c1cccs1
Class: true (1)
--
Compound: Cc1ccc(S(=O)(=O)N2CCN(C(=O)CNC(=O)c3ccc(Cl)cc3)CC2)cc1
Class: false (0)
--
Compound: CCN(CC)S(=O)(=O)c1ccc2c3c(cccc13)C(=O)N2
Class: true (1)
--
Compound: O=C(/C=C/c1ccc(Br)cc1)c1ccc(NC(=O)c2ccco2)cc1
Class: false (0)

Task: binding remaining, % of control under 60%? Item: COc1ccc(NS(=O)(=O)c2cc(NC(=O)C3CC3)ccc2N2CCCCC2)cc1
Result: true (1)

Task: binding remaining, % of control under 60%? Item: COC(=O)CN1C(=S)N(C)C(=O)C1CC(=O)Nc1ccccc1 (stereo not drawn)
Result: false (0)

Task: binding remaining, % of control under 60%? Item: O=C(NCCC1=CCCCC1)C(=O)NCC(c1ccco1)N1CCN(c2ccccc2F)CC1 (stereo not drawn)
Result: false (0)

Task: binding remaining, % of control under 60%? Item: CN1CCN(C(=O)c2cc3ccccc3cc2O)CC1
Result: false (0)

Task: binding remaining, % of control under 60%? Item: CCOc1ccc(CCNC(=O)c2cccc(-n3cnnn3)c2)cc1OCC
Result: false (0)

Task: binding remaining, % of control under 60%? Item: COc1ccc(CC(=O)OCC(=O)N2CCN(S(=O)(=O)c3ccc(C)cc3C)CC2)cc1
Result: false (0)

Task: binding remaining, % of control under 60%? Item: O=C(/C=C/c1ccccc1Cl)NCCc1ccccc1
Result: false (0)

Sourced from PubChem BioAssay AID485284
